Data credit: paper PMC11332147

molecular target: UmuDAb R201X (Acinetobacter baumannii ATCC 17978 JH, UniProt A0A0D5YJU0 1-200); assay: EMSA; 60-70% bound above 1 uM; […] (10x = 100 mM Tris, 500 mM KCl, 10 mM DTT, […]; settings: protein: recombinant; chain copies: 2; label: 5' IRDye700 on both strands; blunt

| BINDER | Kd / nM |
| --- | --- |
| WT 37 bp UmuDAb operator probe (dsDNA) DNA 1: TCGTCAACTTGAAAATGTAACTTTTTCAAGTTACATT DNA 2: AATGTAACTTGAAAAAGTTACATTTTCAAGTTGACGA | 353 |
